Listed molecules paired with reported inhibition at 10 µM
Biological target: human bradykinin receptor 1 (B1R) (Homo sapiens, UniProt P46663)
Construct: expressed in transfected cells; host or cells: CHO K1 cells
Sequence (P46663 1-353): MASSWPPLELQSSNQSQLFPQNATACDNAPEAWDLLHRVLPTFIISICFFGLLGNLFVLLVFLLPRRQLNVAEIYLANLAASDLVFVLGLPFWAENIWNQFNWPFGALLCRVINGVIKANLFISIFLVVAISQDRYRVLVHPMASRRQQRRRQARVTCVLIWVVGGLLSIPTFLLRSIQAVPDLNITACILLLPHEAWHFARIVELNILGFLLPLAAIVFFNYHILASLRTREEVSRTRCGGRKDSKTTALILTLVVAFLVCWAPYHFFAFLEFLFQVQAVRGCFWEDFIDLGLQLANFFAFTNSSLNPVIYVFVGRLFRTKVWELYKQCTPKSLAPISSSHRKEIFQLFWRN
Assay: Functional study on the bradykinin receptor 1 (B1R), human: FLIPR Ca2+ influx assay
Assay type: cell-based
Conditions: test substance 10 μM; CHO K1 cells transfected with human B1R; Lys-Des-Arg9-bradykinin at EC80; Ca2+ influx (Fluo-4, FLIPR); read-out: B1R antagonism, human [10 μM] % inhibition
Please respond with the number in % and leave the unit unwritten.

>  <molecule>
CN(C)C(CCc1ccccc1)C1CCC(CCNC(=O)Cc2ccccc2N(C)S(=O)(=O)c2ccc(Cl)c(Cl)c2)CC1 (stereo not drawn)

>  <unit.tag>
%

>  <inhibition at 10 µM>
83.3

$$$$
>  <molecule>
COc1ccc(S(=O)(=O)N2CCc3ccccc3C2CC(=O)NCCC2CCC(C(c3ccc(F)cc3)N(C)C)CC2)cc1 (stereo not drawn)

>  <unit.tag>
%

>  <inhibition at 10 µM>
82.2

$$$$
>  <molecule>
CN(C)C(CCc1ccccc1)C1CCC(CNC(=O)c2ccccc2N(C)S(=O)(=O)c2ccc(Cl)c(Cl)c2)CC1 (stereo not drawn)

>  <unit.tag>
%

>  <inhibition at 10 µM>
79.3

$$$$
>  <molecule>
COc1ccc(S(=O)(=O)N2CCc3ccccc3C2CC(=O)NCCC2CCC(C(c3cccs3)N(C)C)CC2)cc1 (stereo not drawn)

>  <unit.tag>
%

>  <inhibition at 10 µM>
79.5

$$$$
>  <molecule>
COc1ccc(S(=O)(=O)N2CCc3ccccc3C2CC(=O)NC2CCC(C(c3cccs3)N(C)C)CC2)cc1 (stereo not drawn)

>  <unit.tag>
%

>  <inhibition at 10 µM>
44.6

$$$$

QUERY: Output inhibition at 10 µM of O=C(CC1CCCN1S(=O)(=O)c1ccc(Cl)c(Cl)c1)NCC1CCC(C(c2ccccc2)N2CCCC2)CC1 (stereo not drawn)
RESULT: 80.4

QUERY: Provide inhibition at 10 µM value for the following molecule: CN1CCN(C(c2cccc(F)c2)C2CCN(C(=O)CC(NS(=O)(=O)c3ccc4ccccc4c3)c3ccccc3)CC2)CC1 (stereo not drawn)
RESULT: 102

QUERY: Provide one value: measured inhibition at 10 µM of CN1CCN(C(c2cccc(F)c2)C2CCN(C(=O)CC3CCCCN3S(=O)(=O)c3cccc(C(F)(F)F)c3)CC2)CC1 (stereo not drawn)
RESULT: 87

QUERY: Supply recorded inhibition at 10 µM for Cc1cc(S(=O)(=O)N2CCCCC2CCC(=O)N2CCC(C(c3cccc(F)c3)N3CCN(C)CC3)CC2)c(C)cc1Cl (stereo not drawn) here.
RESULT: 105

QUERY: Check the records and state inhibition at 10 µM for CN(C)C(c1ccccc1)C1CCC(CNC(=O)c2ccccc2N(C)S(=O)(=O)c2ccc(Cl)c(Cl)c2)CC1 (stereo not drawn)
RESULT: 17.9

QUERY: Look up and report measured inhibition at 10 µM for this entry: O=C(CC1CCCCN1S(=O)(=O)c1ccc(Cl)c(Cl)c1)N1CCC(C(Cc2ccccc2)N2CCOCC2)CC1 (stereo not drawn)
RESULT: 14.4

QUERY: Note inhibition at 10 µM for the molecule shown: O=C(CC1CCCCN1S(=O)(=O)c1ccc(Cl)c(Cl)c1)NC1CCC(C(CCc2ccccc2)N2CCCCC2)CC1 (stereo not drawn)
RESULT: 101

---

target: human bradykinin receptor 1 (B1R) (Homo sapiens); construct: expressed in transfected cells; host or cells: CHO K1 cells; assay: Functional study on the bradykinin receptor 1 (B1R), human: FLIPR Ca2+ influx assay; assay type: cell-based; settings: test substance 10 μM; CHO K1 cells transfected with human B1R; Lys-Des-Arg9-bradykinin at EC80; Ca2+ influx (Fluo-4, FLIPR); read-out: B1R antagonism, human [10 μM] % inhibition
quantity.kind: inhibition at 10 µM (%)
Just the number in %, nothing appended.

Guide cases for inhibition at 10 µM, answers given:
>  <compound>
O=C(CC1CCCN1S(=O)(=O)c1ccc(Cl)c(Cl)c1)NC1CCC(C(CCc2ccccc2)N2CCOCC2)CC1 (centres unmarked) [Example 78]

>  <tested.system>
human bradykinin receptor 1 (B1R) (Homo sapiens)

>  <unit.tag>
%

>  <inhibition at 10 µM>
78.3

$$$$
>  <compound>
COc1ccc(S(=O)(=O)N2CCc3ccccc3C2CC(=O)NC2CCC(C(c3cccc(F)c3)N(C)C)CC2)cc1 (centres unmarked) [Example 13]

>  <tested.system>
human bradykinin receptor 1 (B1R) (Homo sapiens)

>  <unit.tag>
%

>  <inhibition at 10 µM>
64.4

$$$$
>  <compound>
CN(C)C(c1ccccc1)C1CCC(NC(=O)CCCCN(C)S(=O)(=O)c2c(Cl)cc(Cl)cc2Cl)CC1 (centres unmarked) [Example 5]

>  <tested.system>
human bradykinin receptor 1 (B1R) (Homo sapiens)

>  <unit.tag>
%

>  <inhibition at 10 µM>
101

$$$$

QUERY: Note inhibition at 10 µM for the compound shown: O=C1NCCN(S(=O)(=O)c2ccc(Cl)cc2Cl)C1CC(=O)N1CCCCC1C(Cc1ccccc1)N1CCOCC1 (centres unmarked) [Example 63]
RESULT: 28.6

QUERY: Given O=C(CC1CCCCN1S(=O)(=O)c1ccc(Cl)c(Cl)c1)NCC1CCC(C(CCc2ccccc2)N2CCCC2)CC1 (centres unmarked) [Example 84] , respond with its inhibition at 10 µM.
RESULT: 95.4

QUERY: Indicate its recorded inhibition at 10 µM; the compound in question is O=C(CC1C(=O)NCCN1S(=O)(=O)c1ccc(Cl)cc1Cl)NCC1CCC(C(c2ccccc2)N2CCCC2)CC1 (centres unmarked) [Example 58]
RESULT: 104

QUERY: Name the recorded inhibition at 10 µM of the compound listed here: CN(C)C(c1ccc(Cl)cc1)C1CCC(CNC(=O)CC2c3ccccc3CCN2S(=O)(=O)c2ccc(Cl)c(Cl)c2)CC1 (centres unmarked) [Example 32]
RESULT: 10.7

QUERY: Please give measured inhibition at 10 µM of the following entry: CN(C)C(c1ccccc1)C1CCC(CCNC(=O)Cc2ccccc2N(C)S(=O)(=O)c2ccc(Cl)c(Cl)c2)CC1 (centres unmarked) [Example 98]
RESULT: 66.8

---

target: bradykinin receptor 1 (B1R) of the rat (Rattus norvegicus, UniProt P97583); construct: expressed in transfected cells; host or cells: CHO K1 cells; assay: Functional study on the bradykinin receptor 1 (B1R), rat: FLIPR Ca2+ influx assay; type: cell-based; details: test substance 10 μM; CHO K1 cells transfected with rat B1R; Des-Arg9-bradykinin at EC80; Ca2+ influx (Fluo-4, FLIPR); read-out: B1R antagonism, rat [10 μM] % inhibition
Sequence (P97583 whole entry): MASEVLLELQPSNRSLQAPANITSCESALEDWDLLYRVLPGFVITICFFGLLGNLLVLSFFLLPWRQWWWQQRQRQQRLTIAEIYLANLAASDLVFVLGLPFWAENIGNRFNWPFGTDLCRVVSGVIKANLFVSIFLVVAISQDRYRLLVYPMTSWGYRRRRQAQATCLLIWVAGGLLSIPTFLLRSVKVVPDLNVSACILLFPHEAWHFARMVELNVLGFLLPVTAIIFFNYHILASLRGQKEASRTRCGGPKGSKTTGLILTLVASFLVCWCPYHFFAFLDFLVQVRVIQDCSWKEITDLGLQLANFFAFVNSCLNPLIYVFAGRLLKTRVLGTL
quantity.kind: inhibition at 10 µM (%)
Report as a plain number; the unit % is understood.

Worked cases, answers included:
>  <compound>
COc1ccc(S(=O)(=O)N2CCc3ccccc3C2CC(=O)NCC2CCC(C(c3cccs3)N(C)C)CC2)cc1 (centres unmarked) [Example 21]

>  <tested.system>
bradykinin receptor 1 (B1R) of the rat (Rattus norvegicus, UniProt P97583)

>  <inhibition at 10 µM [%]>
41

$$$$
>  <compound>
O=C(CC1C(=O)NCCN1S(=O)(=O)c1ccc(Cl)cc1Cl)NC1CCC(C(CCc2ccccc2)N2CCOCC2)CC1 (centres unmarked) [Example 60]

>  <tested.system>
bradykinin receptor 1 (B1R) of the rat (Rattus norvegicus, UniProt P97583)

>  <inhibition at 10 µM [%]>
8

$$$$
>  <compound>
O=C(CC1CCCCN1S(=O)(=O)c1ccc(Cl)c(Cl)c1)NC1CCC(C(c2ccccc2)N2CCOCC2)CC1 (centres unmarked) [Example 106]

>  <tested.system>
bradykinin receptor 1 (B1R) of the rat (Rattus norvegicus, UniProt P97583)

>  <inhibition at 10 µM [%]>
19

$$$$
>  <compound>
CN(C)C(c1ccc(Cl)cc1)C1CCC(CNC(=O)CC2c3ccccc3CCN2S(=O)(=O)c2ccc(Cl)c(Cl)c2)CC1 (centres unmarked) [Example 32]

>  <tested.system>
bradykinin receptor 1 (B1R) of the rat (Rattus norvegicus, UniProt P97583)

>  <inhibition at 10 µM [%]>
15

$$$$
>  <compound>
O=C(CC1C(=O)Nc2ccccc2N1S(=O)(=O)c1ccc(Cl)c(Cl)c1)NCC1CCC(C(CCc2ccccc2)N2CCCC2)CC1 (centres unmarked) [Example 66]

>  <tested.system>
bradykinin receptor 1 (B1R) of the rat (Rattus norvegicus, UniProt P97583)

>  <inhibition at 10 µM [%]>
96

$$$$

QUERY: State its inhibition at 10 µM for this compound: CN(C)C(c1ccccc1)C1CCC(CNC(=O)c2ccccc2N(C)S(=O)(=O)c2ccc(Cl)c(Cl)c2)CC1 (centres unmarked) [Example 38]
RESULT: 15

QUERY: State its inhibition at 10 µM: COc1ccc(S(=O)(=O)N2CCc3ccccc3C2CC(=O)NCC2CCC(C(c3ccc(Cl)cc3)N(C)C)CC2)cc1 (centres unmarked) [Example 20]
RESULT: 28

QUERY: Output inhibition at 10 µM of COc1ccc(S(=O)(=O)N2CCc3ccccc3C2CC(=O)NC2CCC(C(c3ccc(F)cc3)N(C)C)CC2)cc1 (centres unmarked) [Example 14]
RESULT: 75
